All figures here come from patent US20260209352A1.

molecular target: Cyno CD3εδ-Fc (cynomolgus) (UniProt Q95LI8); experiment: KD of scFv-Fc or IgG on cyno CD3εδ-Fc; instrument not given
Sequence (chain, as listed by the source mutant, chain 1 of 2): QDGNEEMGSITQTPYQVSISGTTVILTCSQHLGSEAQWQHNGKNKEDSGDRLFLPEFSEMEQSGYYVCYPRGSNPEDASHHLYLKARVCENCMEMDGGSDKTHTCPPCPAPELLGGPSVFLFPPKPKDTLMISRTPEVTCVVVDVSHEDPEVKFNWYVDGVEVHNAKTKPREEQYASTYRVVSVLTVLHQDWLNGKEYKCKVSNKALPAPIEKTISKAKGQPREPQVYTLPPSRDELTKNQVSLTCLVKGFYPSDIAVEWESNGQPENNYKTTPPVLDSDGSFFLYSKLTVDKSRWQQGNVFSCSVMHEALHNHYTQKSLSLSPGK
Sequence (Q95LI8 22-105, stated change not applied, chain 2 of 2): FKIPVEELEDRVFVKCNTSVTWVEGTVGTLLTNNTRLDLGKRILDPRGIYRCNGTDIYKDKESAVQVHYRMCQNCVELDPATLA
PROPERTY: Kd (nM)
Express the result in nM but write the number alone.

Some entries whose results are on file:
BINDER | Kd [nM]
ADI-45968 (antibody, V domains shown, also called Ab4) VH: QVQLVQSGAEVKKPGASVKVSCKASGFNIKDYYMHWVRQAPGQRLEWIGWIDLENANTVYDAKFQGRVTITRDASASTAYMELSSLRSEDTAVYYCARDAYGRYFYDVWGQGTLVTVSS VL: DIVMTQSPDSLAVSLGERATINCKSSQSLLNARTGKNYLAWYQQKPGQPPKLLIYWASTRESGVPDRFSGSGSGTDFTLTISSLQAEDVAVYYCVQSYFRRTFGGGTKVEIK | 1.4
ADI-45973 (antibody, V domains shown, also called Ab9) VH: QVQLVQSEAEVKKPGASVKVSCKASGFNIKDYYMHWVRQAPGQRLEWIGWIDLENANTVYDAKFQGRVTITRDTSASTAYMELSSLRSEDTAVYYCARDAYGRYFYDVWGQGTLVTVSS VL: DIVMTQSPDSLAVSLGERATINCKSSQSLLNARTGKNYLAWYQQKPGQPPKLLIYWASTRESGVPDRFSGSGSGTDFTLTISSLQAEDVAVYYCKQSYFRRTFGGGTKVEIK | 1.8

From here, focus on the item given below.
# input binder: ADI-45963 (antibody, V domains shown, also called Ab26) VH: QVQLVQSGAEVKKPGAPVKVSCKASGFNIKDYYMHWVRQAPGQRLEWIGWIDLENANTVYDAKFQGRVTITRDTSASTAYMELSSLRSEDTAVYYCARDAYGRYFYDVWGQGTLVTVSS VL: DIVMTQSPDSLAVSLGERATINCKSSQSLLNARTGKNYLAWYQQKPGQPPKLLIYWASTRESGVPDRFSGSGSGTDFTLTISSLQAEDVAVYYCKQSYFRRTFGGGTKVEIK ; wanted: its Kd
2.1
